# Tested on: EKVX NSCLC
# Test: NCI-60 one-dose screen, 48 h
# Condition Summary: 10 µM unless noted
# Procedure: Growth inhibition of the EKVX human Non-Small Cell Lung tumor cell line is measured as a screen for anti-cancer activity. Cells are grown in 96 well plates and exposed to the test compound for 48 hours. Compounds are tested at a single concentration, which is 10^-5 M for most compounds. The reported endpoint is percent growth (GI% or GIPRCNT), where numbers from 0 - 100% represent growth inhibition, and numbers from -100% - 0 represent cell death. […]
This is part of a sample that, as a whole, favours compounds with a hit. Of some 83,000 tested, about 20% had one in any assay. Activity calls are given as the source filed them. How the source made its calls: active means growth percent below 10; inactive means the rest.
Choose the fitting class; nothing outside 1 = active, -1 = inactive is accepted.

Take a look at these entries with their results.
{"Molecule": "C=C1CCC2C3(C)COC(c4cccc(F)c4)OC3CCC2(C)C1C/C=C1/C(=O)OCC1O (stereo not given)", "Label": -1}
{"Molecule": "CN1CCN(c2ccc3c(c2)nc(NNC(=O)c2cnccn2)c2cccn23)CC1", "Label": 1}
{"Molecule": "CCN(CC)CCOc1ccc(Nc2ncc3cc(-c4ccc(O)c(C#N)c4)c(=O)n(C)c3n2)cc1", "Label": -1}
{"Molecule": "O=C(CCN1C(=O)/C(=C/c2ccc(F)cc2)SC1=S)N1CCOCC1", "Label": -1}
{"Molecule": "CC(=O)Nc1ccc(-n2cnc3ccc(-c4ccc(O)cc4)cc32)cc1", "Label": -1}
{"Molecule": "CC1(C)CC[C@]2(C(=O)O)CC[C@]3(C)C(=CCC4[C@@]5(C)C[C@@H](O)[C@@H]6OC(c7ccccc7F)OC[C@@]6(C)C5CC[C@]43C)C2C1 (stereo not given in full)", "Label": -1}
{"Molecule": "COc1ccc(NC(=O)Cn2c3c(sc2=O)[C@H]2[C@@H](O)[C@@H](O)[C@H](O)[C@@H]2CS3)cc1", "Label": -1}
{"Molecule": "C#CCOc1ccc(/C=N/Nc2nc(-c3cc4cc(Br)ccc4oc3=O)cs2)cc1OC", "Label": -1}
{"Molecule": "COc1cc(/C=C/C(=O)c2nnn(-c3ccc(Cl)cc3)c2C)cc(OC)c1OC", "Label": -1}
{"Molecule": "Cn1cc(-c2cc3nc(-c4c[nH]c5ccc(Br)cc45)cc(N)n3n2)c2ccccc21", "Label": 1}

Lab note: next molecule to report on.
Exercise: # outcome recorded in this test, key = CC1=C(C(=O)OC(C)C)C(c2cccc(O)c2)NC(=S)N1 (stereo not given)
Key: -1
